All figures here come from the NIST ThermoML archive (doi:10.1016/j.jct.2009.07.002).

test: isobaric coefficient of expansion; settings: 288.15 K; 45000 kPa; Liquid; DSC with Pressure Shift

>  <molecule>
CCCCCCCO

>  <isobaric coefficient of expansion>
0.000708 1/K

$$$$
>  <molecule>
CCCCCCCCCO

>  <isobaric coefficient of expansion>
0.000698 1/K

$$$$
>  <molecule>
CCCCCCO

>  <isobaric coefficient of expansion>
0.00072 1/K

$$$$
>  <molecule>
CCCCCN

>  <isobaric coefficient of expansion>
0.000937 1/K

$$$$
>  <molecule>
CCC(O)CC

>  <isobaric coefficient of expansion>
0.000807 1/K

$$$$
>  <molecule>
CCCCCO

>  <isobaric coefficient of expansion>
0.000735 1/K

$$$$
>  <molecule>
CCCCCCCCO

>  <isobaric coefficient of expansion>
0.000692 1/K

$$$$
>  <molecule>
CCCO

>  <isobaric coefficient of expansion>
0.000801 1/K

$$$$
>  <molecule>
CCCC(C)O (stereo not given)

>  <isobaric coefficient of expansion>
0.000775 1/K

$$$$
>  <molecule>
CCO

>  <isobaric coefficient of expansion>
0.000866 1/K

$$$$

====

assay: isobaric coefficient of expansion; conditions: 308.15 K; 35000 kPa; Liquid; DSC with Pressure Shift
This listing pairs compounds with measured isobaric coefficient of expansion.
measuredParameter: isobaric coefficient of expansion

>  <compound>
CCC(O)CC [3-pentanol]

>  <recordedValue>
0.000899 1/K

$$$$
>  <compound>
CCCCCCCCCO [nonan-1-ol]

>  <recordedValue>
0.000723 1/K

$$$$
>  <compound>
CCCCCO [pentan-1-ol]

>  <recordedValue>
0.00078 1/K

$$$$
>  <compound>
CCCCCCCO [heptan-1-ol]

>  <recordedValue>
0.000747 1/K

$$$$
>  <compound>
CCCC(C)O (stereo unspecified) [pentan-2-ol]

>  <recordedValue>
0.000868 1/K

$$$$
>  <compound>
CCCCCCCCO [octan-1-ol]

>  <recordedValue>
0.00073 1/K

$$$$
>  <compound>
CCCO [propan-1-ol]

>  <recordedValue>
0.000859 1/K

$$$$
>  <compound>
CCCCCCCCCCO [decan-1-ol]

>  <recordedValue>
0.000719 1/K

$$$$
>  <compound>
CCCCCCO [hexan-1-ol]

>  <recordedValue>
0.000763 1/K

$$$$
>  <compound>
CCCCCN [1-pentanamine]

>  <recordedValue>
0.000988 1/K

$$$$
>  <compound>
CCO [ethanol]

>  <recordedValue>
0.000921 1/K

$$$$

====

assay: isobaric coefficient of expansion; settings: 278.15 K; 50000 kPa; Liquid; DSC with Pressure Shift

>  <compound>
CCC(O)CC

>  <isobaric coefficient of expansion>
0.000769 1/K

$$$$
>  <compound>
CCCCCCCO

>  <isobaric coefficient of expansion>
0.000682 1/K

$$$$
>  <compound>
CCCCCCO

>  <isobaric coefficient of expansion>
0.000708 1/K

$$$$
>  <compound>
CCCCCCCCO

>  <isobaric coefficient of expansion>
0.000683 1/K

$$$$
>  <compound>
CCCCCO

>  <isobaric coefficient of expansion>
0.000719 1/K

$$$$
>  <compound>
CCO

>  <isobaric coefficient of expansion>
0.000852 1/K

$$$$
>  <compound>
CCCCCCCCCO

>  <isobaric coefficient of expansion>
0.000685 1/K

$$$$
>  <compound>
CCCCCN

>  <isobaric coefficient of expansion>
0.000921 1/K

$$$$
>  <compound>
CCCO

>  <isobaric coefficient of expansion>
0.000777 1/K

$$$$
>  <compound>
CCCC(C)O (stereo not given)

>  <isobaric coefficient of expansion>
0.00073 1/K

$$$$

====

experiment: isobaric coefficient of expansion; conditions: 338.15 K; 10000 kPa; Liquid; DSC with Pressure Shift
This listing pairs molecules with measured isobaric coefficient of expansion.

>  <molecule>
CCCCCN

>  <isobaric coefficient of expansion>
0.00116 1/K

$$$$
>  <molecule>
CCO

>  <isobaric coefficient of expansion>
0.00116 1/K

$$$$
>  <molecule>
CCCCCCCO

>  <isobaric coefficient of expansion>
0.000901 1/K

$$$$
>  <molecule>
CCCC(C)O (stereo not drawn)

>  <isobaric coefficient of expansion>
0.00111 1/K

$$$$
>  <molecule>
CCCCCO

>  <isobaric coefficient of expansion>
0.000961 1/K

$$$$
>  <molecule>
CCCCCCO

>  <isobaric coefficient of expansion>
0.000929 1/K

$$$$
>  <molecule>
CCCCCCCCCO

>  <isobaric coefficient of expansion>
0.000858 1/K

$$$$
>  <molecule>
CCCO

>  <isobaric coefficient of expansion>
0.00108 1/K

$$$$

====

This listing pairs molecules with measured isobaric coefficient of expansion.
test: isobaric coefficient of expansion; settings: 288.15 K; 10000 kPa; Liquid; DSC with Pressure Shift

>  <molecule>
CCCCCN [1-pentanamine]

>  <isobaric coefficient of expansion>
0.00108 1/K

$$$$
>  <molecule>
CCCCCCCO [heptan-1-ol]

>  <isobaric coefficient of expansion>
0.000798 1/K

$$$$
>  <molecule>
CCCCCCCCCO [nonan-1-ol]

>  <isobaric coefficient of expansion>
0.000791 1/K

$$$$
>  <molecule>
CCC(O)CC [3-pentanol]

>  <isobaric coefficient of expansion>
0.000916 1/K

$$$$
>  <molecule>
CCCCCCCCO [octan-1-ol]

>  <isobaric coefficient of expansion>
0.000793 1/K

$$$$
>  <molecule>
CCCCCCO [hexan-1-ol]

>  <isobaric coefficient of expansion>
0.000819 1/K

$$$$
>  <molecule>
CCCCCO [pentan-1-ol]

>  <isobaric coefficient of expansion>
0.00085 1/K

$$$$
>  <molecule>
CCO [ethanol]

>  <isobaric coefficient of expansion>
0.00101 1/K

$$$$
>  <molecule>
CCCO [propan-1-ol]

>  <isobaric coefficient of expansion>
0.000923 1/K

$$$$
>  <molecule>
CCCC(C)O (stereo not given) [pentan-2-ol]

>  <isobaric coefficient of expansion>
0.000896 1/K

$$$$

====

assay: isobaric coefficient of expansion; settings: 328.15 K; 5000 kPa; Liquid; DSC with Pressure Shift

>  <compound>
CCCCCN [1-pentanamine]

>  <isobaric coefficient of expansion>
0.00118 1/K

$$$$
>  <compound>
CCCCCO [pentan-1-ol]

>  <isobaric coefficient of expansion>
0.00096 1/K

$$$$
>  <compound>
CCC(O)CC [3-pentanol]

>  <isobaric coefficient of expansion>
0.00109 1/K

$$$$
>  <compound>
CCCCCCCCCCO [decan-1-ol]

>  <isobaric coefficient of expansion>
0.00085 1/K

$$$$
>  <compound>
CCCCCCCO [heptan-1-ol]

>  <isobaric coefficient of expansion>
0.000903 1/K

$$$$
>  <compound>
CCCCCCO [hexan-1-ol]

>  <isobaric coefficient of expansion>
0.000929 1/K

$$$$
>  <compound>
CCCC(C)O (stereo unspecified) [pentan-2-ol]

>  <isobaric coefficient of expansion>
0.0011 1/K

$$$$
>  <compound>
CCCO [propan-1-ol]

>  <isobaric coefficient of expansion>
0.00107 1/K

$$$$
>  <compound>
CCO [ethanol]

>  <isobaric coefficient of expansion>
0.00116 1/K

$$$$
>  <compound>
CCCCCCCCCO [nonan-1-ol]

>  <isobaric coefficient of expansion>
0.000863 1/K

$$$$
>  <compound>
CCCCCCCCO [octan-1-ol]

>  <isobaric coefficient of expansion>
0.000877 1/K

$$$$

====

experiment: isobaric coefficient of expansion; conditions: 288.15 K; 30000 kPa; Liquid; DSC with Pressure Shift
This listing pairs compounds with measured isobaric coefficient of expansion.

>  <compound>
CCCCCO [pentan-1-ol]

>  <isobaric coefficient of expansion>
0.000779 1/K

$$$$
>  <compound>
CCO [ethanol]

>  <isobaric coefficient of expansion>
0.000918 1/K

$$$$
>  <compound>
CCCC(C)O (stereo not given) [pentan-2-ol]

>  <isobaric coefficient of expansion>
0.000823 1/K

$$$$
>  <compound>
CCCCCCCO [heptan-1-ol]

>  <isobaric coefficient of expansion>
0.000743 1/K

$$$$
>  <compound>
CCCO [propan-1-ol]

>  <isobaric coefficient of expansion>
0.000848 1/K

$$$$
>  <compound>
CCCCCCO [hexan-1-ol]

>  <isobaric coefficient of expansion>
0.000756 1/K

$$$$
>  <compound>
CCCCCCCCCO [nonan-1-ol]

>  <isobaric coefficient of expansion>
0.000728 1/K

$$$$
>  <compound>
CCCCCN [1-pentanamine]

>  <isobaric coefficient of expansion>
0.000994 1/K

$$$$
>  <compound>
CCC(O)CC [3-pentanol]

>  <isobaric coefficient of expansion>
0.00085 1/K

$$$$
>  <compound>
CCCCCCCCO [octan-1-ol]

>  <isobaric coefficient of expansion>
0.000732 1/K

$$$$
